Recorded Human Primary Hepatocyte Editing % 500 by entry
- Test system: PCSK9 gene
- experiment summary: PCSK9 gRNA/SpCas9 editing in primary human hepatocytes (Tables 2, 4)
- Format: cell-based
- run parameters: 500 ng/RNA/mL; SpCas9 mRNA MS002 1:1 by weight
- Method: In set of experiments, PCSK9 gRNAs were co-transfected with an equivalent amount (1:1 ratio by weight) of in vitro transcribed commercially available SpCas9 mRNA MS002 purchased from TriLink Biotechnologies into primary human hepatocytes at 2500, 500, or 100 ng/RNA/mL and processed as described in detailed methods. Extracted genomic DNA was analyzed for gene editing at the target site with next-generation sequencing of PCR amplicons generated around the target sites. […]
m = 2'-O-methyl; r = 2'-OH (RNA)
Answer with a number only, understood to be in %.

# input molecule: GA245: PCSK9 gRNA; protospacer GTGCTGCTGCCCCTGGCGGG (SEQ ID NO: 238) (nucleic acid, sugars from the 5' end m3 r94 m3, linkages s3 o93 s3 (s phosphorothioate, o phosphodiester), T or U not given here) guide: GUGCUGCUGCCCCUGGCGGGGUUUUAGAGCUAGAAAUAGCAAGUUAAAAUAAGGCUAGUCCGUUAUCAACUUGAAAAAGUGGCACCGAGUCGGUGCUUUU ; wanted: its Human Primary Hepatocyte Editing % 500 2.97

// switching to the query molecule
May I ask what Human Primary Hepatocyte Editing % 500 has been recorded for GA229: PCSK9 gRNA; protospacer GTCGTGCTGGTCACCGCTGC (SEQ ID NO: 223) (nucleic acid, sugars from the 5' end m3 r94 m3, linkages s3 o93 s3 (s phosphorothioate, o phosphodiester), T or U not given here) guide: GUCGUGCUGGUCACCGCUGCGUUUUAGAGCUAGAAAUAGCAAGUUAAAAUAAGGCUAGUCCGUUAUCAACUUGAAAAAGUGGCACCGAGUCGGUGCUUUU ? 6.85
